Source: ChEMBL document CHEMBL2062454

Recorded pIC50 for the following compounds
measured target: Phosphatidylinositol 4,5-bisphosphate 3-kinase catalytic subunit delta isoform (Homo sapiens, UniProt O00329)
Sequence (O00329 whole entry, canonical isoform): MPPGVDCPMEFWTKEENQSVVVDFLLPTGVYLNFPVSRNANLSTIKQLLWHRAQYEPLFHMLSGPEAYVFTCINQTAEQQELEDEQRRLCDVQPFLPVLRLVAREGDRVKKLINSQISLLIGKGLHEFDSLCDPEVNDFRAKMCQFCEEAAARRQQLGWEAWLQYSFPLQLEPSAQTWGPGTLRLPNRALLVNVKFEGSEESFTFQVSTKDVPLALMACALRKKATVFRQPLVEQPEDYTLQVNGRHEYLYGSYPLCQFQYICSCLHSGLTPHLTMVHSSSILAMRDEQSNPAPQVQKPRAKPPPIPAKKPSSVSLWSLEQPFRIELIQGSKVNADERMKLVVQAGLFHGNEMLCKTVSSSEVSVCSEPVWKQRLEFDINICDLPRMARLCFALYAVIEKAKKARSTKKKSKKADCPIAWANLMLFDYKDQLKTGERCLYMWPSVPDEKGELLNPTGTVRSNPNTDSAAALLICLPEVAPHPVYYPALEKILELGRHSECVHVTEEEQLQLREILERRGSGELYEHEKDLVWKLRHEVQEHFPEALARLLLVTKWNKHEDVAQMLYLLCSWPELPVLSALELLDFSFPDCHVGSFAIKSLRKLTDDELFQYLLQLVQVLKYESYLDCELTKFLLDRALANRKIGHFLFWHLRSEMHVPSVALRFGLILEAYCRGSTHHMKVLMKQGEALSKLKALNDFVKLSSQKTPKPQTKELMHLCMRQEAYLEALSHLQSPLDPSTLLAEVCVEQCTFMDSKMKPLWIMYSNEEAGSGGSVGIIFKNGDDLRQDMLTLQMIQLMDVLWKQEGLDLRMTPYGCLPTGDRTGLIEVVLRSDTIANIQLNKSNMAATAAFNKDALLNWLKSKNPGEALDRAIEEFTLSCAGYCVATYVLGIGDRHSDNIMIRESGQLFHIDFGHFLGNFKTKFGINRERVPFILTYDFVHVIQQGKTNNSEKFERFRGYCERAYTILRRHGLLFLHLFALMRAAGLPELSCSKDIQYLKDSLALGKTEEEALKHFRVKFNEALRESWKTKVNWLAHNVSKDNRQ
method summary: Inhibition of PI3Kdelta by high throughput chemoproteomics binding assay
pIC50: −log10 of the molar value.
reported property: pIC50

molecule | comparative sign | result value
CC(=O)N(C)c1nc2ccc(-c3cccc(S(C)(=O)=O)c3)cn2n1 | < | 4.00
COc1ccc(-c2ccc3nc(NC(C)=O)nn3c2)cc1S(=O)(=O)NCc1ccccc1 | < | 5.00
Nc1nc2ccc(-c3cncc(S(=O)(=O)NCc4ccccc4)c3)cn2n1 | = | 5.10
COc1ccccc1-c1ccc2nc(NC(C)=O)nn2c1 | = | 4.50
CC(=O)Nc1nc2ccc(-c3cccc(S(C)(=O)=O)c3)cn2n1 | = | 5.50
COc1cccc(-c2ccc3nc(NC(C)=O)nn3c2)c1 | < | 4.10
CC(=O)Nc1nc2ccc(-c3cccc(-c4ccccc4)c3)cn2n1 | < | 4.00
CC(=O)Nc1nc2ccc(-c3ccc(S(C)(=O)=O)cc3)cn2n1 | < | 4.00
Nc1nc2ccc(-c3cncc(NS(=O)(=O)c4ccc(Cl)cc4)c3)cn2n1 | = | 6.40
CC(=O)Nc1nc2ccc(-c3cccc(S(=O)(=O)NCc4ccccc4)c3)cn2n1 | = | 5.20

----------
method summary: Half life in rat microsomes
Assay type: ADME, Microsome
reported property: half-life

molecule | result value
CC(C)NS(=O)(=O)c1cncc(-c2ccc3nc(N)nn3c2)c1 | > 45 min
CC(C)(C)NS(=O)(=O)c1cncc(-c2ccc3nc(N)nn3c2)c1 | > 45 min
CC(=O)Nc1nc2ccc(-c3cncc(S(C)(=O)=O)c3)cn2n1 | > 45 min

----------
Reported pIC50 values follow for various molecules
measured target: Phosphatidylinositol 4,5-bisphosphate 3-kinase catalytic subunit alpha isoform (Homo sapiens)
Sequence (P42336 whole entry, canonical isoform): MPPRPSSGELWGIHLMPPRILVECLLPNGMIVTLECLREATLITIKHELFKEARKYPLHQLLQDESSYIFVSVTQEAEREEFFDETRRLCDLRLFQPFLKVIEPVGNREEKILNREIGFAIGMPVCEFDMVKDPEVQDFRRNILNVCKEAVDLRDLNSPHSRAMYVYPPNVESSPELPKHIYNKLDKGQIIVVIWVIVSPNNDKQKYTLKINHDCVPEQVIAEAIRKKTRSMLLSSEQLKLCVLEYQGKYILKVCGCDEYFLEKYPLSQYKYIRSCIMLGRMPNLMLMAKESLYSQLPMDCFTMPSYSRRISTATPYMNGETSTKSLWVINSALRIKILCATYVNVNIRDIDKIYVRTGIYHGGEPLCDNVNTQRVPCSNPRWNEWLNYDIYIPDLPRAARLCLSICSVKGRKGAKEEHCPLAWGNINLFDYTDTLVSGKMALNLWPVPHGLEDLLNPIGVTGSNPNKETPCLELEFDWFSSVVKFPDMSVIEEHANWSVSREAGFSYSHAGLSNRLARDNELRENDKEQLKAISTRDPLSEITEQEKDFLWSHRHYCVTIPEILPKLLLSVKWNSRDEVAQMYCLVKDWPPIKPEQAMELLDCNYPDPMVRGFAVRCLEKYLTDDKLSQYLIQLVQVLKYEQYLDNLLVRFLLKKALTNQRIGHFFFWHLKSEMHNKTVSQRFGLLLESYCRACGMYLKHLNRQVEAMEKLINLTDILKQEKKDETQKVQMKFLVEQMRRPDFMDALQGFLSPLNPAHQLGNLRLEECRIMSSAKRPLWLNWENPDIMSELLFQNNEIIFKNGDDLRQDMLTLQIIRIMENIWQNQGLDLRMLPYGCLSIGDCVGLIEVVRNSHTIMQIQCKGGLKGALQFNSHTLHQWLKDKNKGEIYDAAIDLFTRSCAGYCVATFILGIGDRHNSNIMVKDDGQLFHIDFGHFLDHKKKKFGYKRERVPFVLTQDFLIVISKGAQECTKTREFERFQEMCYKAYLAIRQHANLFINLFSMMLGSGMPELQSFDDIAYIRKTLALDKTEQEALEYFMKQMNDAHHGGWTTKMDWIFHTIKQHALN
method summary: Inhibition of PI3Kalpha by high throughput chemoproteomics binding assay
pIC50: −log10 of the molar value.

molecule | pIC50
CC(=O)Nc1nc2ccc(-c3cccc(NS(C)(=O)=O)c3)cn2n1 | 5.30
Nc1nc2ccc(-c3cncc(S(=O)(=O)NCc4ccccc4)c3)cn2n1 | < 4.70
CC(=O)Nc1nc2ccc(-c3cncc(S(=O)(=O)NCc4ccccc4)c3)cn2n1 | < 5.50
CC(=O)Nc1nc2ccc(-c3cc(C)c(O)c(C)c3)cn2n1 | 4.90
COc1cccc(-c2ccc3nc(NC(C)=O)nn3c2)c1 | < 4.10
Nc1nc2ccc(-c3cncc(NS(=O)(=O)c4ccc(Cl)cc4)c3)cn2n1 | 6.80
CC(=O)Nc1nc2c(F)cc(-c3cncc(S(C)(=O)=O)c3)cn2n1 | < 4.70
CS(=O)(=O)Nc1nc2ccc(-c3cncc(S(C)(=O)=O)c3)cn2n1 | < 4.00
CS(=O)(=O)c1cncc(-c2cc(Cl)c3nc(N)nn3c2)c1 | < 4.00
CC(=O)Nc1nc2cc(C)c(-c3cncc(S(C)(=O)=O)c3)cn2n1 | < 4.00
CC(=O)Nc1nc2ccc(-c3cncnc3)cn2n1 | < 4.80
CN(C)c1nc2ccc(-c3cncc(S(C)(=O)=O)c3)cn2n1 | < 4.00
COc1cncc(-c2ccc3nc(NC(C)=O)nn3c2)c1 | < 5.40
CC(=O)Nc1nc2ccc(-c3ccncc3)cn2n1 | 5.80
CC(=O)Nc1nc2c(C)cc(-c3cncc(S(C)(=O)=O)c3)cn2n1 | < 4.40
CNS(=O)(=O)c1ccc(-c2ccc3nc(NC(C)=O)nn3c2)cc1 | < 4.00
CC(=O)Nc1nc2ccc(-c3cccc(S(=O)(=O)NCc4ccccc4)c3)cn2n1 | < 4.00
CC(C)(C)NS(=O)(=O)c1cncc(-c2cn3nc(N)nc3cc2F)c1 | < 4.00
CC(=O)Nc1nc2ccc(-c3cccnc3)cn2n1 | 4.80
CNc1nc2ccc(-c3cncc(S(C)(=O)=O)c3)cn2n1 | < 5.40
CC(=O)Nc1nc2ccc(-c3cncc4ccccc34)cn2n1 | < 4.00
CC(=O)Nc1nc2ccc(-c3ccsc3)cn2n1 | 6.70
